Answer each item with its documented Offscreen_18hr.
Answer as a number with no unit attached.

**Query** Provide Offscreen_18hr, system parent strain (SAWy518), entry NCC(=O)Nc1ccc(-n2nc(C(F)(F)F)cc2-c2ccc3c(ccc4ccccc43)c2)cc1
**Result** 0.0821

**Query** Fill: Offscreen_18hr (parent strain (SAWy518)) for this compound COc1ccc(-c2coc3cc(OC(C)=O)cc(OC(C)=O)c3c2=O)cc1 [BIOCHANIN A DIACETATE]
**Result** 0.8079

**Query** Find Offscreen_18hr for O=C(/C=C/c1ccc(O)c(O)c1)OCCc1ccccc1 [PHENETHYL CAFFEATE (CAPE)] on parent strain (SAWy518) and write it down.
**Result** 0.3307

**Query** Answer briefly: Offscreen_18hr recorded on parent strain (SAWy518) for N#Cc1ccc(Oc2ccc3c(c2)COB3O)cc1
**Result** 0.594

**Query** Report Offscreen_18hr on parent strain (SAWy518) for this entry: O=c1c2ccccc2[se]n1-c1ccccc1
**Result** 0.0405

**Query** Tell me Offscreen_18hr of Cc1c(N)nc([C@H](CC(N)=O)NC[C@@H](N)C(N)=O)nc1C(=O)N[C@H](C(=O)N[C@@H](C)[C@H](O)[C@@H](C)C(=O)N[C@@H](C(=O)NCCc1nc(-c2nc(C(=O)NCCC[S+](C)C)cs2)cs1)[C@@H](C)O)C(O[C@H]1O[C@H](CO)[C@H](O)[C@@H](O)[C@H]1O[C@H]1O[C@H](CO)[C@@H](O)[C@H](OC(N)=O)[C@@H]1O)c1c[nH]cn1.O=S(=O)([O-])O (stereo partly shown) [Bleomycin sulfate] when tested on parent strain (SAWy518).
**Result** 0.261

**Query** For parent strain (SAWy518), give Offscreen_18hr of the listed compound: C=CC[C@@H]1/C=C(\C)C[C@H](C)C[C@H](OC)[C@H]2O[C@@](O)(C(=O)C(=O)N3CCCC[C@H]3C(=O)O[C@H](/C(C)=C/[C@@H]3CC[C@@H](O)[C@H](OC)C3)[C@H](C)[C@@H](O)CC1=O)[C@H](C)C[C@@H]2OC
**Result** 0.727

====

- Tested on: parent strain (SAWy518)
test.readout: Offscreen_18hr
Quick one: just the number, no unit, thanks!

**Query** Report Offscreen_18hr, nothing else, for this compound: O=C1NC(=O)/C(=C/c2ccc(-c3ccc(F)cc3O)o2)S1 [AS-252424]
**Result** 0.6896

**Query** Report Offscreen_18hr for N#CC(=C(\N)Sc1ccccc1N)/C(C#N)=C(/N)Sc1ccccc1N [U0126]
**Result** 0.7351

**Query** Please look at this compound and report its Offscreen_18hr: CCCCCCc1ccc(O)cc1O [HEXYLRESORCINOL]
**Result** 0.6446

**Query** Give recorded Offscreen_18hr. C[C@@H]1CC[C@@]2(OC1)O[C@H]1[C@@H](O)[C@H]3[C@@H]4CC[C@H]5C[C@@H](O[C@@H]6O[C@H](CO)[C@H](O[C@@H]7O[C@H](CO)[C@@H](O)[C@H](O[C@@H]8OC[C@@H](O)[C@H](O)[C@H]8O)[C@H]7O[C@@H]7O[C@H](CO)[C@H](O)[C@H](O[C@@H]8O[C@H](CO)[C@@H](O)[C@H](O)[C@H]8O)[C@H]7O)[C@H](O)[C@H]6O)[C@H](O)C[C@]5(C)[C@H]4CC[C@]3(C)[C@H]1[C@@H]2C [Digitonin]
**Result** 0.8345

**Query** Query Offscreen_18hr for N.N.N.N.N.N.N.N.N.N.N.N.N.N.[Cl-].[Cl-].[Cl-].[Cl-].[Cl-].[Cl-].[O-2].[O-2].[Ru+3].[Ru+3].[Ru+4] [Ruthenium red]
**Result** 0.6166

**Query** Determine its reported Offscreen_18hr: O=c1c(-c2ccc(O)cc2)coc2cc(O)cc(O)c12 [Genistein]
**Result** 0.8122

**Query** Dear colleague, please send me the reported Offscreen_18hr for OC(Cn1cncn1)(Cn1cncn1)c1ccc(F)cc1F [Fluconazole] when you can.
**Result** 0.804

**Query** In one line, give reported Offscreen_18hr of the entry O=C1C(Cl)=C(Cl)C(=O)C(Cl)=C1Cl [CHLORANIL] .
**Result** 0.1832

**Query** Fill in Offscreen_18hr for record CCCN1CCCC[C@H]1C(=O)Nc1c(C)cccc1C [Ropivacaine]
**Result** 0.8152

**Query** Report Offscreen_18hr for COc1ccc(-c2coc3cc(O)cc(O)c3c2=O)cc1 [Biochanin A]
**Result** 0.7918

**Query** Please look at this compound and report its Offscreen_18hr: Oc1cc(Cl)ccc1Oc1ccc(Cl)cc1Cl [Triclosan]
**Result** 0.1779

**Query** Give a short answer stating reported Offscreen_18hr for CCn1cc(-c2ccnc3[nH]c(-c4cccc(CN(C)C)c4)cc23)c(-c2ccc(NC(=O)N(C)C)cc2)n1 [GSK1070916] .
**Result** 0.7858

**Query** State its Offscreen_18hr for this compound: CC(C)Cn1cnc2c(N)nc3ccccc3c21 [Imiquimod]
**Result** 0.8367

**Query** Look up and state reported Offscreen_18hr for CC(C)(C)CC(C)(C)c1ccc(OCCOCC[N+](C)(C)Cc2ccccc2)cc1 [Benzethonium]
**Result** 0.7683

**Query** Write down Offscreen_18hr measured for item Clc1ccccc1C(c1ccccc1)(c1ccccc1)n1ccnc1 [CLOTRIMAZOLE]
**Result** 0.0789

These measurements were taken from paper PMC11637378.
